assay: antivirals protecting cells from dengue CPE – CPE readout, HTS (AID 540333); settings: Dengue virus CPE inhibition in host cells, at 20 µM
About 320 (3.2%) of roughly 10,000 compounds were called active. Cut-off read from the data, not from the text of the source: active = CPE inhibition mostly above about 9.1% (no sharp cut-off); inactive = mostly below about 7.2%. Many of the other results were omitted from the sample, so actives are more common in it than they were.
Answer with one of the outcomes given here: yes = active, no = inactive

q: Please indicate how the test categorized O=C(NCc1nnc(SCc2ccc(F)cc2)n1-c1ccc(F)cc1)C12CC3CC(CC(C3)C1)C2 .
a: yes

q: Please indicate how the test categorized Cc1ccccc1N=Cc1cc2c(cc1O)OC(N)=C(C#N)C2c1ccccc1 (stereo unspecified) .
a: no

q: Please indicate how the test categorized CCOCCCNC(=O)/C(C#N)=C/c1ccc(-c2ccc(S(=O)(=O)N3CCOCC3)cc2)o1 .
a: no

q: Please indicate how the test categorized Cc1ccc(Oc2nc3ccccn3c(=O)c2/C=C(\C#N)C(=O)Nc2c(C)n(C)n(-c3ccccc3)c2=O)c(C)c1 .
a: no

q: Please indicate how the test categorized Cc1ccc(NP(=O)(c2ccc(N(C)C)cc2NC(=O)c2cccs2)N2CCOCC2)cc1Cl (stereo unspecified) .
a: yes

q: Please indicate how the test categorized CCNC(=O)/C(C#N)=C/c1c(N2CCN(Cc3ccc4c(c3)OCO4)CC2)nc2c(C)cccn2c1=O .
a: no

q: Please indicate how the test categorized COc1cccc(NC(=O)CCC(=O)Nc2cccc(OC)c2)c1 .
a: no

q: Please indicate how the test categorized O=C1NC(=O)C(CC(=O)N(Cc2cccs2)C2(C(=O)NC3CCCC3)CCCCC2)N1 (stereo unspecified) .
a: no

q: Please indicate how the test categorized CNC(=O)/C(C#N)=C/c1c(N(Cc2ccccc2)Cc2ccccc2)nc2c(C)cccn2c1=O .
a: yes

q: Please indicate how the test categorized COc1ccc([C@@H]2C(C#N)=C(N)S[C@@H](c3ccccc3)[C@@H]2[N+](=O)[O-])cc1 .
a: no

q: Please indicate how the test categorized CCOC(=O)c1c(C)nc2ccc(Cl)cc2c1-c1ccccc1 .
a: no

q: Please indicate how the test categorized CN(C)c1ccc(P(=O)(Nc2ccccc2)N2CCOCC2)c(NC(=O)c2cccs2)c1 (stereo unspecified) .
a: no

q: Please indicate how the test categorized CC(C)C[C@@H](COc1ccccc1)N1CCN(Cc2ccccc2)CCC1=O .
a: no

q: Please indicate how the test categorized Cc1cc(OCCOCCN(C)C)ccc1Cl .
a: no

q: Please indicate how the test categorized O=C1C=C(c2ccccc2)C[C@@H](c2ccc3c(c2)OCO3)C1 .
a: no

q: Please indicate how the test categorized CCOC(=O)c1c(C)[nH]c(C=O)c1Cc1cccc(Cl)c1 .
a: yes

q: Please indicate how the test categorized CCOC(=O)N1CCC(N2Cc3cccc(C(=O)N4CC(C)CC(C)C4)c3C2=O)CC1 (stereo unspecified) .
a: no

q: Please indicate how the test categorized CC(C)(C)[C@@H]1CCC(=O)N(CC[C@H](Sc2ccccc2)c2ccccc2)CC1 .
a: no

q: Please indicate how the test categorized C#Cc1ccc([C@@H]2C=C(C(=O)O)O[C@H](OCC)[C@H]2CCCO)cc1 .
a: no

q: Please indicate how the test categorized Cc1cccc(Oc2nc3ccccn3c(=O)c2/C=C(\C#N)C(=O)NC2CCS(=O)(=O)C2)c1 (stereo unspecified) .
a: no

q: Please indicate how the test categorized COCCCN(C(=S)Nc1ccc(C)cc1Cl)C(C)c1ccncc1 (stereo unspecified) .
a: no

q: Please indicate how the test categorized COC(=O)C1=NN(c2cccc(C)c2)C2C(=O)N(c3ccccc3OC)C(=O)C12 (stereo unspecified) .
a: no

q: Please indicate how the test categorized C/C(=N\Nc1ccccn1)c1ccc(S(=O)(=O)NCc2ccco2)cc1 .
a: no

q: Please indicate how the test categorized O=[N+]([O-])c1ccc(N2CCOCC2)cc1SCc1ccco1 .
a: no

q: Please indicate how the test categorized Cc1cc(C(=O)N/N=C/c2cc(Br)cc([N+](=O)[O-])c2O)c2ccccc2n1 .
a: no

q: Please indicate how the test categorized CSc1nc(N2CCOCC2)nc2ccc(C)cc12 .
a: yes

q: Please indicate how the test categorized O=C(Cc1cccs1)N/N=C/c1ccco1 .
a: no

q: Please indicate how the test categorized COc1cccc(C2C(C#N)=C(N)Oc3cc(N)ccc32)c1OC (stereo unspecified) .
a: no

q: Please indicate how the test categorized O=C(Nc1ccccc1)c1ccc(NCCc2ccccc2)c([N+](=O)[O-])c1 .
a: yes

q: Please indicate how the test categorized CNC(=O)/C(C#N)=C/c1c(N(Cc2ccccc2)Cc2ccccc2)nc2ccccn2c1=O .
a: yes

q: Please indicate how the test categorized COc1ccc(NC(=O)CC2(Cc3ccccc3)CCOC(C)(C)C2)cc1 (stereo unspecified) .
a: no

q: Please indicate how the test categorized N#CC1=C(N)Oc2cc(O)c(C=Nc3ccccc3)cc2C1c1ccccc1 (stereo unspecified) .
a: no

q: Please indicate how the test categorized CC1(C)CC(NC(=O)C(Cl)(Cl)Cl)CC(C)(C)N1 .
a: no

q: Please indicate how the test categorized COc1ccc(N=Cc2cc3c(cc2O)OC(N)=C(C#N)C3c2ccccc2)cc1 (stereo unspecified) .
a: yes

q: Please indicate how the test categorized CC(C)(C)c1ccc(C(=O)N2CCC(=O)N(C(CO)Cc3ccccc3)CC2)cc1 (stereo unspecified) .
a: no

q: Please indicate how the test categorized COCCCN(C(=S)Nc1c(C)cc(C)cc1C)C(C)c1ccncc1 (stereo unspecified) .
a: no

q: Please indicate how the test categorized COCCNC(=S)N/N=C(\C)c1ccccc1OC .
a: no

q: Please indicate how the test categorized O=C(OC(c1ccccc1)c1nccc2ccccc12)c1cc([N+](=O)[O-])cc([N+](=O)[O-])c1 (stereo unspecified) .
a: no

q: Please indicate how the test categorized COCCCN(C(=S)Nc1cc(Cl)cc(Cl)c1)C(C)c1ccncc1 (stereo unspecified) .
a: yes

q: Please indicate how the test categorized CC(C)CC(COCc1ccc(Cl)cc1)N1CCN(C(=O)c2ccc(C(F)(F)F)cc2)CCC1=O (stereo unspecified) .
a: yes

q: Please indicate how the test categorized Cc1ccc(NC(=O)c2ccc(NCCN)c([N+](=O)[O-])c2)cc1Cl .
a: no

---

test: antivirals protecting cells from dengue CPE – CPE readout, HTS (AID 540333); conditions: Dengue virus CPE inhibition in host cells, at 20 µM
Out of some 10,000 compounds screened, about 320 (3.2%) were called active. Rule as the data show it: active = CPE inhibition mostly above about 9.1% (no sharp cut-off); inactive = mostly below about 7.2%. Only a selection was taken, and actives are over-represented in it overall.
Answer with one of the outcomes given here: active, inactive

q: Please indicate how the test categorized COC(=O)c1c(NC(=O)CN2CCC3(O)CCCCC3C2c2ccccc2OC)sc(C)c1C (stereo not given) .
a: inactive

q: Please indicate how the test categorized O=C(c1cccc(NS(=O)(=O)c2ccc(F)c(F)c2)c1)N1CCN(C(c2ccccc2)c2ccccc2)CC1 .
a: active

q: Please indicate how the test categorized CCOC(=O)c1c(NC(=O)CN2C(=O)NC3(CCCCC3)C2=O)sc(C)c1-c1ccc(C)cc1 .
a: inactive

q: Please indicate how the test categorized COc1ccc(C2C3CCCCC3(O)CCN2C(=O)c2cccs2)cc1 (stereo not given) .
a: inactive

q: Please indicate how the test categorized O=C(COC(=O)c1cccc(NS(=O)(=O)c2ccc(F)c(F)c2)c1)NC(=O)NC1CCCCC1 .
a: inactive

q: Please indicate how the test categorized CCOC(=O)c1ccc(-c2ccc(C3Nc4ccccc4C(=O)N3O)o2)cc1 (stereo not given) .
a: inactive

q: Please indicate how the test categorized Cc1ccc(OCCN(C)C)c([N+](=O)[O-])c1 .
a: inactive

q: Please indicate how the test categorized O=C1CN(C(=O)COc2ccc(Br)cc2F)c2ccccc2N1 .
a: inactive

q: Please indicate how the test categorized COC(=O)c1cc(CNC(=O)c2ccc(O)c(Cl)c2)ccc1OC .
a: inactive

q: Please indicate how the test categorized O=C(c1cccc(NS(=O)(=O)c2ccc(F)c(F)c2)c1)N1CCN(Cc2ccccc2)CC1 .
a: inactive

---

assay: antivirals protecting cells from dengue CPE – CPE readout, HTS (AID 540333); conditions: Dengue virus CPE inhibition in host cells, at 20 µM
About 320 (3.2%) of roughly 10,000 compounds were called active. Cut-off read from the data, not from the text of the source: active = CPE inhibition mostly above about 9.1% (no sharp cut-off); inactive = mostly below about 7.2%. The entries come from a sample that favours actives as a whole.
Answer with one of the outcomes given here: active, inactive

q: Please indicate how the test categorized C/C(=N\NC(=O)c1ccccc1-n1cccc1)C1CC1 .
a: inactive

q: Please indicate how the test categorized Cc1ccc(NC(=S)NC(C)CCc2ccccc2)cc1C (stereo unspecified) .
a: active

q: Please indicate how the test categorized COc1ccc(OC)c(/C=C/C(=O)OCC(=O)Nc2cccc(Oc3ccccc3)c2)c1 .
a: inactive

q: Please indicate how the test categorized O=C(NNS(=O)(=O)c1ccc(Cl)cc1)c1ccc(S(=O)(=O)N2CCCCC2)cc1 .
a: inactive

q: Please indicate how the test categorized Cc1ccc(S(=O)(=O)NCCC(=O)Nc2ccc(C)c(Cl)c2)cc1C .
a: active

q: Please indicate how the test categorized C#CCNC(=O)C1=C[C@@H](c2ccc(C(F)(F)F)cc2)C[C@@H](OCc2ccc(CO)cc2)O1 .
a: inactive

q: Please indicate how the test categorized CCNC(=S)N/N=C(\C)c1cc2ccccc2o1 .
a: inactive

q: Please indicate how the test categorized Cc1ccccc1NC(=O)C(=O)NC(C)CCc1ccccc1 (stereo unspecified) .
a: inactive

q: Please indicate how the test categorized CC12CCC(C(=O)N(NC(=O)c3cccnc3)C1=O)C2(C)C (stereo unspecified) .
a: inactive

q: Please indicate how the test categorized COc1cccc(-c2ncc3ccccc3c2CO)c1 .
a: inactive

q: Please indicate how the test categorized COc1cccc(-c2ncc3ccccc3c2COC(=O)c2ccc(C(F)(F)F)cc2)c1 .
a: inactive
